Target Under Test: T1, cynoCSF1R ECD-Fc (cynomolgus)
T1 construct: also called cynomolgus CSF1R ECD
T1 sequence (chain, as listed by the source): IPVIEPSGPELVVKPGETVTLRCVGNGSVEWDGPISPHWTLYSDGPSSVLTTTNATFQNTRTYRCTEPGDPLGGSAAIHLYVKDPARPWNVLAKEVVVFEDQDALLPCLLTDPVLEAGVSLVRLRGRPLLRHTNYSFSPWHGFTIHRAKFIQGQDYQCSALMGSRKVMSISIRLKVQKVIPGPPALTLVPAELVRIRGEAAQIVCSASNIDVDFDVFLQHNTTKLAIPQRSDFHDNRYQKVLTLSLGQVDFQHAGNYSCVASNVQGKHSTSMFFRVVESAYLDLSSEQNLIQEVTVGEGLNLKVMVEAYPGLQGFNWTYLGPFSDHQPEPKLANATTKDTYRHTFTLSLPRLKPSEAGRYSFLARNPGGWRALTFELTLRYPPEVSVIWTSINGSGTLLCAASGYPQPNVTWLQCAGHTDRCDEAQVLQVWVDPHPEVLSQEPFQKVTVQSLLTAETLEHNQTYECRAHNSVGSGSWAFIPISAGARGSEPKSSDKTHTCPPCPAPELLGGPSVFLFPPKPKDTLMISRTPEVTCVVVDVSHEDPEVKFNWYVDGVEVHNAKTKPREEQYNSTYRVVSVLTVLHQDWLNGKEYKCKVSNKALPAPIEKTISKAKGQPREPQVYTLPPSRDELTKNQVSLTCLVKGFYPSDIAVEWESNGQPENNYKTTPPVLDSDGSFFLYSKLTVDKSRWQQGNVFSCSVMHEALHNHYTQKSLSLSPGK
Protocol: competition ELISA, blocking of human IL34 binding to cynoCSF1R ECD-Fc
Assay Readout: IC50 (µg/mL)

Binder: h0302-L1H2 (antibody, human IgG4 S228P, kappa, V domains shown, also called Ab11; huAb 0302-L1H2) VH: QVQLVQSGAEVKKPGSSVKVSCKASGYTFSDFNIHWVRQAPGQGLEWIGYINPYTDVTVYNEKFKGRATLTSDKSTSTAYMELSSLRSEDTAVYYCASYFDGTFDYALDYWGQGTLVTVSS VL: EIVLTQSPATLSLSPGERATLSCRASESVDNYGLSFMNWYQQKPGQAPRLLIYTASNLESGIPARFSGSGSRTDFTLTISSLEPEDFAVYYCQQSKELPWTFGQGTKVEIKR
Value Unit: µg/mL
Reported Result: 0.541
--
Binder: h0311-L0H2 (antibody, human IgG4 S228P, kappa, V domains shown, also called Ab15; huAb 0311-L0H2) VH: QVQLVQSGAEVKKPGSSVKVSCKASGYIFTDYNMHWVRQAPGQGLEWMGEINPNNGVVVYNQKFKGTTTLTVDKSTSTAYMELSSLRSEDTAVYYCTRALYHSNFGWYFDSWGQGTLVTVSS VL: EIVLTQSPATLSLSPGERATLSCKASQSVDYDGDSHMNWYQQKPGQAPRLLIYTASNLESGIPARFSGSGSGTDFTLTISSLEPEDFAVYYCQQGNEDPWTFGQGTKVEIKR
Value Unit: µg/mL
Reported Result: 0.0408
--
Binder: h0302-L0H2 (antibody, human IgG4 S228P, kappa, V domains shown, also called Ab10; huAb 0302-L0H2) VH: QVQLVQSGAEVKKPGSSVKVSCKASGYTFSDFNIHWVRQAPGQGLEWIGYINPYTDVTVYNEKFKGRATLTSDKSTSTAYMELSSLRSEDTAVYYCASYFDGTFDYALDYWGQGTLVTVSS VL: EIVLTQSPATLSLSPGERATLSCRASESVDNYGLSFMNWYQQKPGQAPRLLIYTASNLESGIPARFSGSGSGTDFTLTISSLEPEDFAVYYCQQSKELPWTFGQGTKVEIKR
Value Unit: µg/mL
Reported Result: 0.248
--
Binder: h0311-L1H1 (antibody, human IgG4 S228P, kappa, V domains shown, also called Ab14; huAb 0311-L1H1) VH: QVQLVQSGAEVKKPGSSVKVSCKASGYIFTDYNMHWVRQAPGQGLEWMGEINPNNGVVVYNQKFKGRVTITVDKSTSTAYMELSSLRSEDTAVYYCTRALYHSNFGWYFDSWGQGTLVTVSS VL: DIVLTQSPATLSLSPGERATLSCKASQSVDYDGDSHMNWYQQKPGQAPRLLIYTASNLESGIPARFSGSGSGADFTLTISSLEPEDFAVYYCQQGNEDPWTFGQGTKVEIKR
Value Unit: µg/mL
Reported Result: 0.0537
